target: canine TRPM8 (Canis lupus familiaris, UniProt Q1A7N1); construct: expressed in transfected cells; assay: In Vitro Canine TRPM8 Functional Assay (Ca2+-sensitive fluorescent dye, icilin activation, FLIPR/FDSS); type: cell-based; settings: compound at 0.5 μM; HEK293 cells stably expressing canine TRPM8, icilin activation
Sequence (Q1A7N1 1-1104): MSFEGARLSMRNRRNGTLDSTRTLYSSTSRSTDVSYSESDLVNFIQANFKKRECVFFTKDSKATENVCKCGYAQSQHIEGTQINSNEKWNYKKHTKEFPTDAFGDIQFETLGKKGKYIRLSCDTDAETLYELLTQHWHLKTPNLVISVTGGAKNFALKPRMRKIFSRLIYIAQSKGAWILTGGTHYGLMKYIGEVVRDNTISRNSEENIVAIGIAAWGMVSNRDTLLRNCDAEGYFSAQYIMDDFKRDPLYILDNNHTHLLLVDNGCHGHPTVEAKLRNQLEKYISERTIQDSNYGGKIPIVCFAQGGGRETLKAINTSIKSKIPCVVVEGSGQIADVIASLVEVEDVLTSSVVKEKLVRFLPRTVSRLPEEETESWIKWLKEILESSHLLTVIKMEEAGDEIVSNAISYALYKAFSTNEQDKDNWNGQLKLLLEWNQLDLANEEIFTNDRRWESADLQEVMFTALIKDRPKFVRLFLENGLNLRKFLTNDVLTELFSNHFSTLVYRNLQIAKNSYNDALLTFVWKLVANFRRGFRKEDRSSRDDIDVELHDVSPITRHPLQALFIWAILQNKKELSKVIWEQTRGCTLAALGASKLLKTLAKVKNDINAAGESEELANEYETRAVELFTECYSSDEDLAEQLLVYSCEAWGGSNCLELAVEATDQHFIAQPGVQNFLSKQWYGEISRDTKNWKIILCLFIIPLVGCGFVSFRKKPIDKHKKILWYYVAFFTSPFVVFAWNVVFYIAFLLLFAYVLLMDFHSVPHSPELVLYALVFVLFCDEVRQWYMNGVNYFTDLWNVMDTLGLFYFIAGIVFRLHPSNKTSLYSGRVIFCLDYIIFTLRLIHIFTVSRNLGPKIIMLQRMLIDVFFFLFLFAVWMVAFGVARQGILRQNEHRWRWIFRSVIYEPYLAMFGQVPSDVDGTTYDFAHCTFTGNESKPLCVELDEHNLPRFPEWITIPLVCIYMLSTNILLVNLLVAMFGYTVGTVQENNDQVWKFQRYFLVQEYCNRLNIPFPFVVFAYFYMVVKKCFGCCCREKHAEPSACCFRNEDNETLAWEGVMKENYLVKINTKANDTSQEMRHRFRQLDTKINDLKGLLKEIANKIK
readoutKind: % I (0.5 μM) (%)
One number for each entry, in %.

{"compound": "CCOP(=O)(OCC)C(Cc1cc(C(F)(F)F)ccc1Cl)c1sc2ccccc2c1Br (stereo not drawn)", "readoutKind": "% I (0.5 μM)", "valueObserved": 103}

The following compounds each have a reported value; give each one's % I (0.5 μM).
1. CCOP(=O)(OCC)C(Cc1cccc(SC(F)(F)F)c1)c1sc2ccccc2c1Cl (stereo not drawn)
2. CCOP(=O)(OCC)C(Cc1ccc(F)c(OC)c1)c1sc2ccccc2c1Br (stereo not drawn)
3. CCOP(=O)(OCC)C(Cc1ccc(F)c(Cl)c1)c1sc2ccccc2c1Br (stereo not drawn)
4. CCOP(=O)(OCC)C(Cc1ccc(C(F)(F)F)cc1)c1sc2ccccc2c1Cl (stereo not drawn)
5. CC(C)OP(=O)(OC(C)C)C(Cc1cccc(C(F)(F)F)c1F)c1sc2ccccc2c1Cl (stereo not drawn)
6. CC(C)OP(=O)(OC(C)C)C(Cc1ccc(Cl)c(F)c1)c1sc2ccccc2c1Cl (stereo not drawn)
7. CCOP(=O)(OCC)C(Cc1cccc(Cl)c1F)c1sc2ccccc2c1Br (stereo not drawn)

102
103
103
103
104
103
101

% I (0.5 μM) in this record for CCOP(=O)(OCC)C(Cc1cc(C(F)(F)F)cc(C(F)(F)F)c1)c1sc2ccccc2c1Cl (stereo not drawn) : 100

---

biological target: UniProt Q1A7N1; assay: In Vitro Canine TRPM8 Functional Assay (Ca2+-sensitive fluorescent dye, icilin activation, FLIPR/FDSS); settings: HEK293 cells stably expressing canine TRPM8, icilin activation; eight-point dose-response
Label Satisfied when IC50 < 0.1 µM; otherwise Not satisfied.

Observe how each entry below is paired with its result.
{"compound": "CC(C)OP(=O)(OC(C)C)C(Cc1ccc(F)c(F)c1)c1oc2cccc(F)c2c1Br (centres unmarked)", "class": "Satisfied"}
{"compound": "CCOP(=O)(OCC)C(Cc1ccc(C(F)(F)F)cc1F)c1sc2ccccc2c1Cl (centres unmarked)", "class": "Not satisfied"}
{"compound": "CCOP(=O)(OCC)C(Cc1ccc(F)c(C(F)(F)F)c1)c1sc2ccccc2c1Cl (centres unmarked) [Cpd 298]", "class": "Satisfied"}
{"compound": "CCOP(=O)(OCC)C(Cc1ccc(F)c(F)c1)c1sc2ccccc2c1-c1cccc(C(N)=O)c1 (centres unmarked)", "class": "Not satisfied"}
{"compound": "CCOP(=O)(OCC)C(Cc1ccc(F)c(F)c1)c1sc2ccccc2c1-c1ccccc1O (centres unmarked)", "class": "Satisfied"}
{"compound": "CC(C)OP(=O)(OC(C)C)C(Cc1cc(C(F)(F)F)ccc1F)c1sc2ccccc2c1Cl (centres unmarked)", "class": "Not satisfied"}
{"compound": "CC(C)OP(=O)(OC(C)C)C(Cc1ccc(F)c(F)c1)c1sc2ncccc2c1Br (centres unmarked)", "class": "Satisfied"}
{"compound": "CCOP(=O)(OCC)C(Cc1ccc(S(=O)(=O)C(F)(F)F)cc1)c1sc2ccccc2c1Cl (centres unmarked)", "class": "Satisfied"}
{"compound": "CC(C)OP(=O)(OC(C)C)C(Cc1cc(Cl)ccc1F)c1sc2ccccc2c1Cl (centres unmarked)", "class": "Satisfied"}
{"compound": "CCOP(=O)(OCC)C(Cc1cccc(Cl)c1Cl)c1sc2ccccc2c1C (racemic)", "class": "Not satisfied"}

A record lists CCOP(=O)(OCC)C(Cc1ccc(Cl)cc1)c1sc2ccccc2c1Cl (centres unmarked) . Is its IC50 below 0.1 µM? Not satisfied

A record lists CCOP(=O)(OCC)C(Cc1cccc(Cl)c1F)c1sc2ccccc2c1Br (centres unmarked) . Is its IC50 below 0.1 µM? Satisfied

A record lists CCOP(=O)(OCC)C(Cc1ccc(F)cc1Cl)c1sc2ccccc2c1C (racemic) . Is its IC50 below 0.1 µM? Not satisfied

A record lists CCOP(=O)(OCC)C(Cc1ccc(SC(F)(F)F)cc1)c1sc2ccccc2c1Br (centres unmarked) . Is its IC50 below 0.1 µM? Satisfied

A record lists CCOP(=O)(OCC)C(Cc1c(F)c(F)c(O)c(F)c1F)c1sc2ccccc2c1Br (centres unmarked) . Is its IC50 below 0.1 µM? Not satisfied

A record lists CCOP(=O)(OCC)C(Cc1cccc(OC)c1F)c1sc2ccccc2c1Br (centres unmarked) . Is its IC50 below 0.1 µM? Satisfied

A record lists CCOP(=O)(OCC)C(Cc1cccc(Cl)c1F)c1sc2ccccc2c1C (racemic) . Is its IC50 below 0.1 µM? Satisfied

A record lists CCOP(=O)(OCC)C(Cc1cccc(C(F)(F)F)c1Cl)c1sc2ccccc2c1Br (centres unmarked) . Is its IC50 below 0.1 µM? Not satisfied
